assayedSystem: IMP-1 (Serratia marcescens, UniProt P52699)
Sequence (P52699 whole entry, looked up, species assumed): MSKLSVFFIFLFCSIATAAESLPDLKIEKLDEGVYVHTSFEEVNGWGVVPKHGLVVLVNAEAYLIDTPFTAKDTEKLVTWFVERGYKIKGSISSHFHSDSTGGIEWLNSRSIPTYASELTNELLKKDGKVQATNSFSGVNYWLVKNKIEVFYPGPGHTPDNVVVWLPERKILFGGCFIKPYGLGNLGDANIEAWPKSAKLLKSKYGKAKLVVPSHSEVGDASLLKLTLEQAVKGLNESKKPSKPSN
assayProtocol: biochemical
Type: biochemical
testContext: fluorescence assay, CCF2-FA substrate, 2 pM enzyme, 2 hours at 25° C.; read-out: IMP-1 IC50
pIC50: −log10 of the molar value.
Entries annotated with measured pIC50

# molecule, pIC50
rows = [
    ("NCCNS(=O)(=O)c1ccc(C2=CC(N)CCC2)c(-c2nn[nH]n2)c1S(N)(=O)=O (stereo not shown)", 7.04),
    ("CS(=O)(=O)Nc1nc2c(-c3ccc(S(=O)(=O)N4CCNCC4)c(S(N)(=O)=O)c3-c3nn[nH]n3)cccc2s1", 9.05),
    ("CN(C[C@@H]1CCCN1)S(=O)(=O)c1ccc(-c2cccc3sc(N)nc23)c(-c2nnn[nH]2)c1S(N)(=O)=O.O=CO [Example 121, formate]", 8.55),
    ("Nc1ncc(-c2cccc(-c3ccc(S(=O)(=O)N[C@@H]4CCNC4)c(S(N)(=O)=O)c3-c3nnn[nH]3)n2)[nH]1", 8.17),
    ("Cn1nc2cccc(-c3ccc(S(=O)(=O)N[C@@H]4CCNC4)c(S(N)(=O)=O)c3-c3nn[nH]n3)c2n1", 9.12),
    ("NCCNS(=O)(=O)c1ccc(-c2cccc(-c3n[nH]c(N)n3)c2)c(-c2nn[nH]n2)c1S(N)(=O)=O", 9.25),
    ("Nc1nc2c(-c3ccc(S(=O)(=O)N[C@H]4CCNC4)c(S(N)(=O)=O)c3-c3nnn[nH]3)cccc2s1", 9.17),
]

====

assayedSystem: NDM-1 (Klebsiella pneumoniae, UniProt C7C422)
Sequence (C7C422 whole entry, looked up, species assumed): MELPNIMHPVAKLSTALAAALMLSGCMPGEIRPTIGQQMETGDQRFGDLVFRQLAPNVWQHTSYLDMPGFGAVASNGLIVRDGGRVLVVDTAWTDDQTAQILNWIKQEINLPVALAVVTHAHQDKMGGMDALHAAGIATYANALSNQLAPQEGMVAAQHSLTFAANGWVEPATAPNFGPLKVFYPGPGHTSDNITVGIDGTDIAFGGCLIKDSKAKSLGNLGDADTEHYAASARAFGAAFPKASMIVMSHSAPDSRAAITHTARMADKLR
assayProtocol: biochemical
Type: biochemical
testContext: fluorescence assay, CCF2-FA substrate, 1 pM enzyme, 2 hours at 25° C.; read-out: NDM-1 IC50
Rule: IC50 below 0.05 nM gives true (1), anything at or above gives false (0).

# compound, classAssignment
data = [
    ("NCCNS(=O)(=O)c1ccc(-c2cccc3[nH]cnc23)c(-c2nn[nH]n2)c1S(N)(=O)=O", "true (1)"),
    ("NCc1nc2c(-c3ccc(S(=O)(=O)NC[C@@H]4CNCCN4)c(S(N)(=O)=O)c3-c3nn[nH]n3)cccc2[nH]1", "false (0)"),
    ("NCCNS(=O)(=O)c1ccc(-c2cccc(SCC(N)CO)c2)c(-c2nn[nH]n2)c1S(N)(=O)=O (centres unmarked)", "false (0)"),
    ("NC(=O)[C@@H](N)CNS(=O)(=O)c1ccc(-c2cccc3[nH]c(N)nc23)c(-c2nn[nH]n2)c1S(N)(=O)=O", "false (0)"),
    ("CN(C)S(=O)(=O)c1ccc(-c2cccc3sc(N)nc23)c(-c2nn[nH]n2)c1S(N)(=O)=O", "false (0)"),
    ("NCCNC(=O)c1cc(Cl)cc(-c2ccc(S(=O)(=O)NCCN)c(S(N)(=O)=O)c2-c2nn[nH]n2)c1N", "false (0)"),
    ("NC[C@H](N)CNS(=O)(=O)c1ccc(-c2cnc3cc[nH]c3c2)c(-c2nn[nH]n2)c1S(N)(=O)=O", "false (0)"),
    ("NS(=O)(=O)c1c(S(=O)(=O)N[C@@H]2CCNC2)ccc(-c2ccc3c(c2)C(=O)NC3)c1-c1nnn[nH]1", "false (0)"),
    ("Nc1nc2c(-c3ccc(S(=O)(=O)N[C@@H]4CCCNC4)c(S(N)(=O)=O)c3-c3nnn[nH]3)cccc2s1", "true (1)"),
    ("Nc1nc2c(-c3ccc(S(=O)(=O)N4CC5(CCNC5)C4)c(S(N)(=O)=O)c3-c3nnn[nH]3)cccc2s1", "false (0)"),
    ("Nc1nc2c(-c3ccc(S(=O)(=O)NCC4CCC(=O)N4)c(S(N)(=O)=O)c3-c3nnn[nH]3)cccc2s1 (centres unmarked)", "false (0)"),
    ("CN1CC[C@H](CNS(=O)(=O)c2ccc(-c3cccc4sc(N)nc34)c(-c3nnn[nH]3)c2S(N)(=O)=O)C1", "true (1)"),
    ("NCCNc1cc(-c2ccc(S(=O)(=O)N[C@@H]3CCNC3)c(S(N)(=O)=O)c2-c2nn[nH]n2)ccn1", "false (0)"),
    ("CC(C)(CN)NS(=O)(=O)c1ccc(-c2cccc3sc(N)nc23)c(-c2nnn[nH]2)c1S(N)(=O)=O.O=CO [Example 117, formate]", "true (1)"),
]
